# Tested on: LXRa:RXRa (NR concentration 270 nM, RXRa partner concentration 90 nM)
# experiment.description: PBM binding z-score (relative to random genomic background probes); higher = stronger binding; sequences stand for … in GC…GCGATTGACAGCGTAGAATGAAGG
Dear colleague, classification is by PBM binding z-score, with ranges listed here: low band: < 0.3; middle band: ≥ 0.3 and < 1; high band: ≥ 1

Class for CGAACTAGGTCAGAACAGGACAGTGACGGATGAT ?
middle band

Class for TCTGCTAGGTCAGTTGGTCGGCTAACGAGCTGCC ?
middle band

Class for ATCTATAGGTAACAAGTTCAGTGAAAGAGAGGAC ?
high band

Class for TCTCGGAAGACACGAAGGTCAGAGCTTTCCAGAG ?
middle band

Class for ACTTACGGGTCGACGAGGTTATAGCACGCGTATA ?
high band

Class for ATCGAAAGGTCGACGAGGTGAGTAGACACCGTTT ?
high band

Class for TCTTGTAGATCAAGCAGGTTACGAAAGCCTGAGT ?
middle band

Class for TCTTGTAGATCAACAGGAGGGTAAGAAAGATCGA ?
low band

Class for TCTATTAGCTGATTAGGGCAACCGAAACAGCGGA ?
low band

Class for CCTGCTACGTCAATGGTCAGCTAAAGCAGCTCGC ?
low band

Class for ATCTCTAGGTAATGTTCAGTGAAAGATCGATAGA ?
middle band

Class for CCTTACGGGTCACGAGGTTACAGCACGACGAGCG ?
high band

----------
Kindly state PBM binding z-score for each of the entries shown.
# System: RARb:RXRa (NR concentration 270 nM, RXRa partner concentration 90 nM)
# experiment.description: PBM binding z-score (relative to random genomic background probes); higher = stronger binding; sequences stand for … in GC…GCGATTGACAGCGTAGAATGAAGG
Answer with a bare number; do not write a unit.

Note to self: PBM binding z-score recorded for AGTCAAAGTTCATTAGGTAACGTAAGATTCAGCT was 4.7

Note to self: PBM binding z-score recorded for ACTAGCGGGCCAAGTTTGGGTCACTCAAACAAAG was 1.64

Note to self: PBM binding z-score recorded for AGCCAAAGTTCATCTAGGTAACGTAAGATATGCT was 4.94

Note to self: PBM binding z-score recorded for ACAGACAGGTGAGTGCAGGTAACTCAGCTGGACG was 0.35

Note to self: PBM binding z-score recorded for CCTCAAAGTTCAACTAAGGTAACGTAAAGCACGC was 5.33

Note to self: PBM binding z-score recorded for CGTCCAAGGTCAGAGAGGTGAGTGAATGCCGAGT was 4.78

Note to self: PBM binding z-score recorded for CCTCGGAGGACAACAGGAGGACAGAGCTGCCAGA was 1.09

----------
# Test system: PXR:RXRa (NR concentration 270 nM, RXRa partner concentration 90 nM)
# experiment.description: PBM binding z-score (relative to random genomic background probes); higher = stronger binding; sequences stand for … in GC…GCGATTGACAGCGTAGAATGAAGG
measured.property: PBM binding z-score
Answer with a bare number; do not write a unit.

I looked up TCTTGTAGATCAACAGGACGTTAAGAAAGATCGA and its PBM binding z-score for PXR:RXRa (NR concentration 270 nM, RXRa partner concentration 90 nM) was 0.135

I looked up CCTACTGGGCCAAAGGTCATTGCTTCCAATGCTC and its PBM binding z-score for PXR:RXRa (NR concentration 270 nM, RXRa partner concentration 90 nM) was 5.39

I looked up TAGCCTAGGGCAGATCGGGCCAGTATACGCTATA and its PBM binding z-score for PXR:RXRa (NR concentration 270 nM, RXRa partner concentration 90 nM) was -0.394

----------
# Tested on: RARa:RXR (NR concentration 270 nM, RXRa partner concentration 90 nM)
# experiment.description: PBM binding z-score (relative to random genomic background probes); higher = stronger binding; sequences stand for … in GC…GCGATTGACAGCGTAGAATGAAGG
The threshold is inclusive: PBM binding z-score of exactly 4 counts as 1.0; values below receive 0.0.

Record CGTCGAAGGTCAGAGAGGTCAGTGAATGCCGAGT ; criterion: PBM binding z-score no lower than 4. Met?
1.0

Record CGTCAAAGTTCAACTAAGGTATCGTAAAGCACGC ; criterion: PBM binding z-score no lower than 4. Met?
1.0

Record ACTATTGGTTGACTTAGGGCAACCGATACGACGC ; criterion: PBM binding z-score no lower than 4. Met?
0.0

Record CGAACTAGGTCATTGACAGGACCGTGAATAGTAA ; criterion: PBM binding z-score no lower than 4. Met?
0.0

Record ATCTCTAGGTAAGACTCAGTTCAGTTAAGAACGC ; criterion: PBM binding z-score no lower than 4. Met?
0.0

----------
Kindly state PBM binding z-score for each of the entries shown.
# Test system: PPARa:RXRa (NR concentration 270 nM, RXRa partner concentration 90 nM)
# experiment.description: PBM binding z-score (relative to random genomic background probes); higher = stronger binding; sequences stand for … in GC…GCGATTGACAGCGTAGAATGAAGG

Note to self: PBM binding z-score recorded for GCTTGTAAATCAAGGTTAAGAAAGACTAAGCTAA was 1.56

Note to self: PBM binding z-score recorded for CGTCCAAGGTCGGAGAGGTCAGTGAATGCCGAGT was 3.1

Note to self: PBM binding z-score recorded for ATCACTAGGTAAAGATAGTTCAGTGAATGCAAAT was 0.991

Note to self: PBM binding z-score recorded for CCAAGCAGGCCAATCTGGGTCACTCAAGGCTTGA was 3.45

Note to self: PBM binding z-score recorded for TCATATAGCTAAAGGTGAAAGTCGAACGATATGA was 2.67

Note to self: PBM binding z-score recorded for TCGAGTAGGTCACCAATGGGGCATTCAGCTTTCT was 4.45

Note to self: PBM binding z-score recorded for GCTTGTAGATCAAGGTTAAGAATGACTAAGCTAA was 1.37

Note to self: PBM binding z-score recorded for CTACCAAGTTGAACAAGGTCGTTGATTACTATTC was 1.73

----------
# Tested on: PPARg:RXRa (NR concentration 180 nM, RXRa partner concentration 90 nM)
# experiment.description: PBM binding z-score (relative to random genomic background probes); higher = stronger binding; sequences stand for … in GC…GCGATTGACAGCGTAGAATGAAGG
measured.property: PBM binding z-score
Answer with a bare number; do not write a unit.

Note to self: PBM binding z-score recorded for TCGAGTAGGTTAGTCGGGGAATTCAGCCAACATA was -0.188

Note to self: PBM binding z-score recorded for GGAACGAGGGCAAAGTTGATAGCGTCTGTCGACG was 7.58

Note to self: PBM binding z-score recorded for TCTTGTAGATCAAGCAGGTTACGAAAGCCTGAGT was 0.00625

Note to self: PBM binding z-score recorded for TCAAGTTGGTCAAAGGTCACACACTCGAAATGCG was 11.2

Note to self: PBM binding z-score recorded for ACTAGCAGGCCAAGGGACACTCAAGATTAGTCCG was 1.88

Note to self: PBM binding z-score recorded for CCTTACGGGTCACTGACAGGTTATAGCATTTGGA was 4.48

Note to self: PBM binding z-score recorded for CCTCGGAGGACAACACGAGGTCAGAGCTGCCAGA was 0.596

Note to self: PBM binding z-score recorded for GCAGACAGGTGAAACGCAGGTAACTTAGGGTGGC was 0.771

Note to self: PBM binding z-score recorded for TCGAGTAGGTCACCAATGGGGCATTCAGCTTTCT was 5.85

Note to self: PBM binding z-score recorded for TCTGCTAGGCCAGTTGGTCAGCTAACGAGCTGCC was -1.07

Note to self: PBM binding z-score recorded for ATCTCTCGGTAAAGATAGTTCAGTGAATGCAAAT was 0.0238

Note to self: PBM binding z-score recorded for CCGAGCAGGCCAGGGTCACTCAAGCATTTCGCTT was 0.393

Note to self: PBM binding z-score recorded for ACTAGCAGGCCAAGTTTGGGTCACTAAAACAAAG was 0.26

Note to self: PBM binding z-score recorded for CCTAGAAGGCCAATCTGGGTCACTCAAGGCTTGA was 2.93

Note to self: PBM binding z-score recorded for CGAACGAGGGCATGAGTTGATAGCTAATGCCGAT was 1.53

Note to self: PBM binding z-score recorded for CCTACTGGGCCAAAAAGGACATTGATGCCGATAA was 1.04

Note to self: PBM binding z-score recorded for CAAACTAGGTCACCGGAAGGGCAAAGTCCGCATG was 8.84

Note to self: PBM binding z-score recorded for CCTAGCAGGCCAATCTGGGTCACGCAAGGCTTGA was 3.18

Note to self: PBM binding z-score recorded for GCTGCTAGGTCGGGTTGGTCAGCTAACGGGTACG was -0.576

Note to self: PBM binding z-score recorded for AATACAGGGTCATCGTAGGCCAAAGTACGCACAG was 6.83

Note to self: PBM binding z-score recorded for TCGAGTAGGTTAGTCGGGGCAATCAGCCAACATA was 0.0628

Note to self: PBM binding z-score recorded for ATATGTAGGTTATCGGGTCATTCACTTTGCGCAT was 7.09
